Attribution: paper PMC10566475

target: human Keap1 Kelch domain (A321-T609) (Homo sapiens, UniProt Q14145); construct: human Keap1 Kelch domain (A321-T609) fused with N-terminal 6x His-tag; 6xHis (N); made in house; test: Surface plasmon resonance (SPR) direct binding assay, immobilised Keap1 Kelch domain; conditions: Table 1; geometric mean ± sd of at least 3 independent repeats unless stated; 20°C
Sequence (Q14145 321-609): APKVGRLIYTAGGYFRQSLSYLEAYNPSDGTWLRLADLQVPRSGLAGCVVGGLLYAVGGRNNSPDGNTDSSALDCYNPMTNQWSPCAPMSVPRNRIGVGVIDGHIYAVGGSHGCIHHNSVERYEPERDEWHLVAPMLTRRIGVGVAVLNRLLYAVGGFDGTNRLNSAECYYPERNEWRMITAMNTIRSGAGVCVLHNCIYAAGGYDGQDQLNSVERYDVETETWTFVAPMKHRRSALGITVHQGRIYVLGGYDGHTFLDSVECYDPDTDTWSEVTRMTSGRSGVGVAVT
pKd: −log10 of the molar value. *1 amine or outer side, *2 acyl side, *3 side chain or, on linkers, in order; H or OH if unused. Where a SMILES comes first, the peptide text is derived from it. Bridges are numbered along the chain shown (N, C = ends). CH2 = C([*:1])[*:2]

molecule | pKd
CC(=O)N[C@@H](CS)C(=O)N[C@@H](CCC(N)=O)C(=O)N[C@@H](CC(C)C)C(=O)N[C@@H](CC(=O)O)C(=O)N1CCC[C@H]1C(=O)N[C@@H](CCC(=O)O)C(=O)N[C@H](C(=O)NCC(=O)N[C@@H](CCC(=O)O)C(=O)N[C@@H](CS)C(=O)N[C@@H](CC(C)C)C(N)=O)[C@@H](C)O [Peptide P1] (Ac-CQLDPETGECL-NH2) | 7.70
CC(=O)N[C@@H](CC(C)C)C(=O)N[C@@H](CCC(N)=O)C(=O)N[C@@H](CS)C(=O)N[C@@H](CC(=O)O)C(=O)N1CCC[C@H]1C(=O)N[C@@H](CCC(=O)O)C(=O)N[C@H](C(=O)NCC(=O)N[C@@H](CCC(=O)O)C(=O)N[C@@H](CS)C(=O)N[C@@H](CC(C)C)C(N)=O)[C@@H](C)O [Peptide P2] (Ac-LQCDPETGECL-NH2) | 7.12
CC(=O)N[C@@H](CC(C)C)C(=O)N[C@@H](CCC(N)=O)C(=O)N[C@H]1CSCSC[C@@H](C(=O)N[C@@H](CC(C)C)C(N)=O)NC(=O)[C@H](CCC(=O)O)NC(=O)CNC(=O)[C@H]([C@@H](C)O)NC(=O)[C@H](CCC(=O)O)NC(=O)[C@@H]2CCCN2C(=O)[C@H](CC(=O)O)NC1=O [Peptide P2-A] (Ac-LQCDPETGECL-NH2; linker 3-10 via CH2) | 7.15

###

target: interaction between the human Keap1 Kelch domain and an Nrf2-ETGE peptide (Homo sapiens); construct: 1nM purified human Keap1 Kelch domain (A321-T609) fused with N-terminal 6x His-tag; made in house; experiment: Keap1-Nrf2 TR-FRET (HTRF) assay; format: binding; conditions: Table 1; geometric mean ± sd of at least 3 independent repeats unless stated; read-out: TR-FRET IC50
Sequence (Q14145 321-609): as above
pIC50: −log10 of the molar value. *1 amine or outer side, *2 acyl side, *3 side chain or, on linkers, in order; H or OH if unused. Where a SMILES comes first, the peptide text is derived from it. Bridges are numbered along the chain shown (N, C = ends). CH2COCH2 = O=C(C[*:1])C[*:2]; CH2 = C([*:1])[*:2]

molecule | pIC50
CC(=O)N[C@H]1CSCC(=O)CSC[C@@H](C(=O)N[C@@H](CC(C)C)C(N)=O)NC(=O)[C@H](CCC(=O)O)NC(=O)CNC(=O)[C@H]([C@@H](C)O)NC(=O)[C@H](CCC(=O)O)NC(=O)[C@@H]2CCCN2C(=O)[C@H](CC(=O)O)NC(=O)[C@H](CC(C)C)NC(=O)[C@H](CCC(N)=O)NC1=O [Peptide P1-B] (Ac-CQLDPETGECL-NH2; linker 1-10 via CH2COCH2) | 8.36
CC(=O)N[C@@H](CC(C)C)C(=O)N[C@@H](CCC(N)=O)C(=O)N[C@H]1CSCSC[C@@H](C(=O)N[C@@H](CC(C)C)C(N)=O)NC(=O)[C@H](CCC(=O)O)NC(=O)CNC(=O)[C@H]([C@@H](C)O)NC(=O)[C@H](CCC(=O)O)NC(=O)[C@@H]2CCCN2C(=O)[C@H](CC(=O)O)NC1=O [Peptide P2-A] (Ac-LQCDPETGECL-NH2; linker 3-10 via CH2) | 8.08
